experiment: Clinical plasma pharmacokinetics of paclitaxel and its metabolites (HPLC, non-compartmental analysis); settings: human, plasma, intravenous, 80 mg, AUCs of paclitaxel, schedules 1 and 3 (except patient 8); paclitaxel 80 mg m-2
READOUT NAME: AUC

# AUC lookup, item CC(=O)O[C@H]1C(=O)[C@@]2(C)[C@H]([C@H](OC(=O)c3ccccc3)[C@]3(O)C[C@H](OC(=O)[C@H](O)[C@@H](NC(=O)c4ccccc4)c4ccccc4)C(C)=C1C3(C)C)[C@]1(OC(C)=O)CO[C@@H]1C[C@@H]2O [paclitaxel] 3 to 4.85 µM·h
